Test Description: DRUGMATRIX: GABAA, Flunitrazepam, Central radioligand binding (ligand: [3H] Flunitrazepam)
Type: cell membranes, Rattus norvegicus, Wistar, Brain, Membrane
Measurement Parameters: Not Active = under 50% inhibition at 10 µM; read-out: IC50
Assay Endpoint: pIC50
Scale explanation: pIC50 corresponds to minus log10 of a concentration expressed in moles per litre.

> print(dat)
                               smiles.entry   val
1  OCCN(CCO)c1nc(N2CCCCC2)c2nc(N(CCO)CCO)nc(N3CCCCC3)c2n1  6.42

Read the next record carefully.
Could you tell me which pIC50 is on file for `O=c1ncn2nc(Sc3ccc(F)cc3F)ccc2c1-c1c(Cl)cccc1Cl` ?
4.92
